The reported numbers originate from patent US9062028B2.

# assayed.target: recombinant human TGR5 (Homo sapiens, UniProt Q8TDU6)
# assay: cAMP assay (cAMP accumulation, HTRF) in CHOK1 cells stably expressing TGR5
# measurement.parameters: CHOK1 cells stably expressing human TGR5, 30 minutes at RT, 1% DMSO
Where a name gives a salt, the structure may show the parent alone.
measured.property: EC50 (nM)

Some compounds with known EC50 results, for comparison:
Cc1c(Cl)cccc1OCCCC(=O)N1CCCOc2c(-c3cnn(Cc4cccc(C(=O)NCS(=O)(=O)O)c4)c3)cccc21 [Example 146R] : 49
Cc1cccc(OCCCC(=O)N2CCSc3c(-c4cnn(Cc5cccc(C(=O)NCCO)c5)c4)cccc32)c1C : 42
COC(=O)c1ccc(Cl)c(Cn2cc(-c3cccc4c3SCCN4C(=O)OCCOc3cccc(Cl)c3C)cn2)c1 : 186

a. CCOC(=O)CN(CC(=O)OCC)C(=O)c1cccc(Cn2cc(-c3cccc4c3[C@H]3C[C@H]3CN4C(=O)CCCOc3cccc(Cl)c3C)cn2)c1
b. Cc1c(Cl)cccc1OCCCC(=O)N1CCSc2c(-c3cnn(Cc4cccc(C(=O)NCC(C)(C)O)c4)c3)cccc21
c. Cc1cccc(OCCCC(=O)N2CCOc3c(-c4cnn(Cc5cccc(S(=O)(=O)N[C@@H](CCC[N+](C)(C)C)C(=O)O)c5)c4)cccc32)c1C [Example 505, TFA salt]
Give the ascending ranking of the items by reported EC50. Please respond by ranking the labels in the order requested.
b, a, c

* * *

# assayed.target: recombinant human TGR5 (Homo sapiens)
# Sequence (Q8TDU6 1-330): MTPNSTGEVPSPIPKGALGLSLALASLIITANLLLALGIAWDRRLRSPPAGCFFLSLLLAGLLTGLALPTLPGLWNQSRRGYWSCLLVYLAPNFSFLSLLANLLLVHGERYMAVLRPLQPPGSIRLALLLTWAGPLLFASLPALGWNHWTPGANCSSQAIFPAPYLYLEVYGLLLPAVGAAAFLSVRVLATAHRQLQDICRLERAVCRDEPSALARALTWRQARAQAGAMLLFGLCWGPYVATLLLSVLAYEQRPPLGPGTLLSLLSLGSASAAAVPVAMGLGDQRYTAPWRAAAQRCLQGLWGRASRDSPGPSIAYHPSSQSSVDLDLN
# assay: cAMP assay (cAMP accumulation, HTRF) in CHOK1 cells stably expressing TGR5
# measurement.parameters: CHOK1 cells stably expressing human TGR5, 30 minutes at RT, 1% DMSO
measured.property: EC50 (nM)

Some molecules with known EC50 results, for comparison:
Cc1c(Cl)cccc1OCCCC(=O)N1CCCOc2c(-c3cnn(Cc4ccc(C(=O)NCS(=O)(=O)O)cc4F)c3)cccc21 : 188
Cc1cccc(OCCCC(=O)N2CCCc3c(-c4cnn(CCNC(=O)NCC(=O)O)c4)cccc32)c1C [Example 110G] : 3140
Cc1c(Cl)cccc1OCCCC(=O)N1CCSc2c(-c3cnn(Cc4cccc(C(=O)NCC(=O)O)c4)c3)cccc21 : 35

I. Cc1cccc(OCCCC(=O)N2CCCc3c(-c4cnn(Cc5cccc(C(=O)N(C)CCS(=O)(=O)O)c5)c4)cccc32)c1C
II. Cc1cccc(OCCCC(=O)N2CC3CC3c3c(-c4cnn(Cc5c(F)cc(C(=O)NCS(=O)(=O)O)cc5Cl)c4)cccc32)c1C (stereo not shown) [Example 69B]
III. Cc1c(Cl)cccc1OCCCC(=O)N1Cc2ccccc2Oc2c(-c3cnn(Cc4c(F)cc(C(=O)NCCC(=O)O)cc4Cl)c3)cccc21
IV. Cc1cccc(OCCCC(=O)N2CCCc3c(-c4cnn(C(C)c5cccc(NC(=O)NCCS(=O)(=O)O)c5)c4)cccc32)c1C (stereo not shown)
V. Cc1cccc(OCCCC(=O)N2C[C@@H]3C[C@@H]3c3c(-c4cnn(Cc5cccc(C(=O)N[C@H]6CCOC6=O)c5)c4)cccc32)c1C
List from greatest to least EC50. Please respond by ranking the labels in the order requested.
I, IV, III, II, V
(I: 1350 nM, IV: 646 nM, III: 200 nM, II: 50 nM, V: 26 nM)

I. Cc1c(Cl)cccc1OCCCC(=O)N1C[C@@H]2C[C@@H]2c2c(-c3cnn(Cc4cccc(C(=O)NCS(=O)(=O)O)c4)c3)cccc21 (single isomer, unassigned)
II. Cc1cccc(OCCCC(=O)N2CCCc3c(-c4cccc(COC(=O)NCC(F)(F)C(=O)O)c4)cccc32)c1C
Of the two listed items, I and II , which carries the larger EC50 figure? Answer format: the label of the selected item.
II

A. Cc1cccc(OCCOC(=O)N2CCOc3c(-c4cnn(Cc5cccc(C(=O)NCCS(=O)(=O)O)c5)c4)cccc32)c1C
B. Cc1c(Cl)cccc1OCCOC(=O)N1C[C@@H]2C[C@@H]2c2c(-c3cnn(Cc4cccc(C(C)(C)O)c4)c3)cccc21
Could you determine which record has the numerically smaller EC50? Candidates: A and B Answer format: the label of the selected item.
B

* * *

# assayed.target: recombinant human TGR5 (Homo sapiens, UniProt Q8TDU6)
# assay: cAMP assay (cAMP accumulation, HTRF) in CHOK1 cells stably expressing TGR5
# measurement.parameters: CHOK1 cells stably expressing human TGR5, 30 minutes at RT, 1% DMSO
pEC50: −log10 of the molar value. Counter-ions that a name gives are not always drawn.
measured.property: pEC50

Some molecules with known pEC50 results, for comparison:
Cc1c(Cl)cccc1OCCCC(=O)N1CCSc2c(-c3cnn(Cc4c(F)cc(C(=O)NCCC(=O)O)cc4Cl)c3)cccc21 : 7.51
Cc1cccc(OCCCC(=O)N2CCCc3c(-c4cccc(COC(=O)NCC[C@H](O)C(=O)O)c4)cccc32)c1C : 6.19
Cc1cccc(OCCCC(=O)N2C[C@H]3C[C@H]3c3c(-c4cnn(Cc5cccc(NC(=O)NCC(=O)O)c5)c4)cccc32)c1C (single isomer, unassigned) : 6.19
Cc1cccc(OCCCC(=O)N2CCCc3c(-c4cccc(C(=O)NCC(=O)O)c4)cccc32)c1C : 5.46

I. Cc1cccc(OCCCC(=O)N2C[C@@H]3C[C@@H]3c3c(-c4cnn(Cc5cccc(C(=O)NCC(=O)O)c5)c4)cccc32)c1C
II. Cc1cccc(OCCCC(=O)N2CCCc3c(-c4cnn(Cc5cccc(C(=O)N6CCCC(CO)C6)c5)c4)cccc32)c1C (stereo not shown)
III. Cc1cccc(OCCCC(=O)N2CCCc3c(-c4cnn(Cc5cccc(N(C)C(=O)N(C)CC[N+](C)(C)C)c5)c4)cccc32)c1C [Example 472, TFA salt]
List from greatest to least pEC50. Please respond by ranking the labels in the order requested.
I, II, III

* * *

# assayed.target: recombinant human TGR5 (Homo sapiens, UniProt Q8TDU6)
# assay: cAMP assay (cAMP accumulation, HTRF) in CHOK1 cells stably expressing TGR5
# measurement.parameters: CHOK1 cells stably expressing human TGR5, 30 minutes at RT, 1% DMSO
pEC50: −log10 of the molar value. Structures can show the parent of a compound that is named as a salt.
measured.property: pEC50

Some compounds with known pEC50 results, for comparison:
Cc1c(Cl)cccc1OCCCC(=O)N1C[C@@H]2C[C@@H]2c2c(-c3cnn(Cc4cccc(C(=O)O)c4)c3)cccc21 (single isomer, unassigned) : 7.33
Cc1c(Cl)cccc1OCCCC(=O)N1CCSc2c(-c3cnn(Cc4c(F)cc(C(=O)NCC(=O)O)cc4Cl)c3)cccc21 : 7.42
Cc1c(Cl)cccc1OCCCC(=O)N1CCSc2c(-c3cnn(Cc4c(F)cc(C(=O)NCCC[C@H](N)C(=O)O)cc4Cl)c3)cccc21 : 7.37
Cc1cccc(OCCCC(=O)N2CC3CC3c3c(-c4cnn(Cc5c(F)cc(C(=O)NCCC(=O)O)cc5Cl)c4)cccc32)c1C (stereo not drawn) [Example 69E] : 7.35

1. Cc1cccc(OCCCC(=O)N2CCSc3c(-c4cnn(Cc5c(F)cc(C(=O)NCS(=O)(=O)O)cc5Cl)c4)cccc32)c1C
2. Cc1c(Cl)cccc1OCCCC(=O)N1CCSc2c(-c3cnn(Cc4cccc(C(=O)NCCC[C@H](N)C(=O)OC(C)C)c4)c3)cccc21 [Example 635, TFA salt]
Of the two listed items, 1 and 2 , which carries the larger pEC50 figure? Answer format: the label of the selected item.
1
(1: 7.35, 2: 6.75)

* * *

# assayed.target: recombinant human TGR5 (Homo sapiens)
# assay: cAMP assay (cAMP accumulation, HTRF) in CHOK1 cells stably expressing TGR5
# measurement.parameters: CHOK1 cells stably expressing human TGR5, 30 minutes at RT, 1% DMSO
measured.property: EC50 (nM)

Cc1cccc(OCCCC(=O)N2CCCc3c(-c4cnn(Cc5cccc(C(=O)N[C@@H](Cc6ccccc6)C(=O)O)c5)c4)cccc32)c1C : 196

a. Cc1c(Cl)cccc1OCCOC(=O)N1CCSc2c(-c3cnn(Cc4cccc(C(=O)NCCS(=O)(=O)O)c4Cl)c3)cccc21
b. O=C(O)c1cccc(Cn2cc(-c3cccc4c3C3CC3CN4C(=O)OCCOc3c(F)cccc3F)cn2)c1 (stereo not shown) [Example 32A]
Could you determine which record has the numerically smaller EC50? Candidates: a and b Answer format: the label of the selected item.
a
(a: 188 nM, b: 3400 nM)
